Where these numbers come from: ChEMBL document CHEMBL4265908

Target or system: Nuclear factor erythroid 2-related factor 2 (Homo sapiens) (UniProt Q16236)
Sequence (Q16236 whole entry): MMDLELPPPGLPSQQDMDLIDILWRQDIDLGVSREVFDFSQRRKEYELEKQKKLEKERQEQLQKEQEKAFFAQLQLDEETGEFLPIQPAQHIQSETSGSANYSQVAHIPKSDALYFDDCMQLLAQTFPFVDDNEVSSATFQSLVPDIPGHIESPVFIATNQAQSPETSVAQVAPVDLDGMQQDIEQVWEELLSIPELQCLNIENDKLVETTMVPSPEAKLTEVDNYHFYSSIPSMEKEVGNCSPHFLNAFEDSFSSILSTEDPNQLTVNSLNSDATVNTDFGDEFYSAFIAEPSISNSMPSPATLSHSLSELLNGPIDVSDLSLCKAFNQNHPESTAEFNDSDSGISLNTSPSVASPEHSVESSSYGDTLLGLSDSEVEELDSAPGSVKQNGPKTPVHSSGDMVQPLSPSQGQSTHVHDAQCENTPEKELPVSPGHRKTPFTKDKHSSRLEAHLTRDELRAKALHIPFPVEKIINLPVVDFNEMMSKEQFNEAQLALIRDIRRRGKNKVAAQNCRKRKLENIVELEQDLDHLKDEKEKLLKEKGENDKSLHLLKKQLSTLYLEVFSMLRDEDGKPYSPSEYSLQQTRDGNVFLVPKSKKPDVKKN
Assay: Activation of Nrf2 in human HepG2-ARE-C8 cells assessed as induction of ARE-mediated luciferase activity at 0.1 uM after 24 hrs by luciferase reporter gene assay relative to control
Type: cell-based
Quantity kind: Activity

Example results:
Fc1ccc(-c2noc(-c3ccc(F)c(F)c3)n2)cc1F | 1.36
CN(C)C=O | 1
Fc1ccc(-c2nc(-c3ccccn3)no2)cc1F | 0.83

A = Fc1ccc(-c2nc(-c3ccc(-c4ccccc4)cc3)no2)cc1F
B = Fc1ccc(-c2noc(-c3ccc(F)c(F)c3)n2)cc1
// which entry reports the smaller Activity, A or B ? The response must carry the label of the picked entry. A

I = Cc1ccnc(-c2noc(-c3ccc(F)c(F)c3)n2)c1
II = Cc1ccc(-c2noc(-c3ccc(F)c(F)c3)n2)cn1
Which of the two gives a bigger number for Activity: I or II ? Provide the label of your selected option as the answer. II
(II: 3.46, I: 1.06)

###

Target or system: Nuclear factor erythroid 2-related factor 2 (Homo sapiens) (UniProt Q16236)
Assay: Activation of Nrf2 in human HepG2-ARE-C8 cells assessed as induction of ARE-mediated luciferase activity at 1 uM after 24 hrs by luciferase reporter gene assay relative to control
Type: cell-based
Quantity kind: Activity

Fc1ccc(-c2nc(-c3cccc4[nH]ccc34)no2)cc1F | 2.01
Fc1ccc(-c2nc(-c3ccc(-c4ccccc4)cc3)no2)cc1F | 6.75
Clc1ccc(-c2nc(-c3ccc4nc[nH]c4c3)no2)cc1 | 1.64

A = Fc1cc(F)c(-c2nc(-c3ccc4nc[nH]c4c3)no2)cc1Cl
B = Fc1ccc(-c2nc(-c3ccccc3F)no2)cc1F
In terms of reported Activity, does A or B have the smaller number? Your answer should be the label attached to the chosen record. A

###

Assay: Intrinsic aqueous solubility of the compound by potentiometric titration method
Type: physicochemical
Quantity kind: solubility (µM)

Fc1ccc(-c2nc(-c3ccc4nc[nH]c4c3)no2)cc1F | 99

a = Cc1ccc(-c2noc(-c3ccc(F)c(F)c3)n2)cn1
b = Fc1ccc(-c2nc(-c3ccc(-c4ccccc4)cc3)no2)cc1F
c = COc1cccc(-c2noc(-c3ccc(F)c(F)c3)n2)c1
d = Cc1ccc(-c2noc(-c3ccc(F)c(F)c3)n2)cc1
Please give the order of these molecules when sorted by solubility, largest value leading. Record the ranking as a list of labels in the requested order. a, c, d, b
(a: 250 µM, c: 86 µM, d: 35 µM, b: 16 µM)

a = Cc1ccnc(-c2noc(-c3ccc(F)c(F)c3)n2)c1
b = Fc1ccc(-c2nc(-c3ccc(Br)cc3)no2)cc1F
Compare the recorded solubility of a and b ; state which is larger. Kindly give the label for the entry you pick. a

P = Cc1cccc(-c2noc(-c3ccc(F)c(F)c3)n2)n1
Q = CC(C)(C)c1ccc(-c2noc(-c3ccc(F)c(F)c3)n2)cc1
For the two items P and Q , which reports the higher solubility value? Indicate your choice by writing its label. P
(P: 200 µM, Q: 91 µM)

###

Target or system: Nuclear factor erythroid 2-related factor 2 (Homo sapiens) (UniProt Q16236)
Assay: Activation of Nrf2 in human HepG2-ARE-C8 cells assessed as induction of ARE-mediated luciferase activity at 0.1 uM after 24 hrs by luciferase reporter gene assay relative to control
Assay type: cell-based
Quantity kind: Activity

Guide cases for Activity, answers given:
Fc1cc(F)c(-c2nc(-c3ccc4nc[nH]c4c3)no2)cc1Cl | 1.18
Fc1ccc(-c2nc(-c3ccc(Br)cc3)no2)cc1F | 3.78

A = Fc1ccc(-c2nc(-c3cccc4[nH]ccc34)no2)cc1F
B = Fc1ccc(-c2nc(-c3ccccc3Br)no2)cc1F
Return label of the item with the larger Activity. Candidates: A , B . Pick one; state its label. A
